Assay: physchem
Format: physicochemical
Conditions: water
# solubility per record follows
Property measured: solubility

INSERT INTO assay_data (compound, property_measured, result) VALUES
  ('O=C(CN(CCO)CC(=O)Nc1c(I)c(C(=O)NC(CO)C(O)CO)c(I)c(C(=O)NC(CO)C(O)CO)c1I)Nc1c(I)c(C(=O)NCCO)c(I)c(C(=O)NCCO)c1I (stereo not drawn)', 'solubility', '> 600 mg/mL'),
  ('CN(C(=O)CN(CCO)CC(=O)N(C)c1c(I)c(C(=O)NCC(O)CO)c(I)c(C(=O)NCC(O)CO)c1I)c1c(I)c(C(=O)NCC(O)CO)c(I)c(C(=O)NCC(O)CO)c1I (stereo not drawn)', 'solubility', '> 600 mg/mL'),
  ('CC(=O)N(CC(O)CN(C(C)=O)c1c(I)c(C(=O)NCC(O)CO)c(I)c(C(=O)NCC(O)CO)c1I)c1c(I)c(C(=O)NCC(O)CO)c(I)c(C(=O)NCC(O)CO)c1I (stereo not drawn) [IODIXANOL, Iodixanol, reference compound]', 'solubility', '> 600 mg/mL');
